Assay: melting temperature; UV melt of duplexes
Conditions: sodium 0.07 M; strand 2 µM
RECORDED_ENDPOINT: Tm (°C)
Write it as a number; the unit °C goes unstated.

Problem: Looking for the measured Tm of ATAACTTTACGTGTGTGACCTATTA+TAATAGGTCACACACGTAAAGTTAT (((((((((((((((((((((((((+))))))))))))))))))))))))) , can you help?
Result: 56.6

Problem: Again, but for AATATCTCTCATGCGCCAAGCTACA+TGTAGCTTGGCGCATGAGAGATATT (((((((((((((((((((((((((+)))))))))))))))))))))))))
Result: 62.1

Problem: Again, but for CCACTATACCATCTATGTAC+GTACATAGATGGTATAGTGG ((((((((((((((((((((+))))))))))))))))))))
Result: 51.1

Problem: Again, but for ACCGACGACGCTGATCCGAT+ATCGGATCAGCGTCGTCGGT ((((((((((((((((((((+))))))))))))))))))))
Result: 66

Problem: Again, but for AACCTGCAACATGGAGTTTTTGTCTCATGC+GCATGAGACAAAAACTCCATGTTGCAGGTT ((((((((((((((((((((((((((((((+))))))))))))))))))))))))))))))
Result: 64.5

Problem: Again, but for CGCCGCTGCCGACTGGAGGAGCGCGGGACG+CGTCCCGCGCTCCTCCAGTCGGCAGCGGCG ((((((((((((((((((((((((((((((+))))))))))))))))))))))))))))))
Result: 77.8
